src = PubChem BioAssay (NCI)

Catalogue of growth readings, one per entry.
Tested on: CCRF-CEM leukemia
test details: NCI-60 one-dose screen, 48 h (100 = growth as untreated, 0 = no growth, -100 = all killed)
assay setup: 10 µM unless noted
About 83,000 compounds went through this panel and 20% of them were active in at least one assay; those are over-represented in the sample as a whole.

compound	growth (%)
O=C1Nc2ccccc2/C1=C/c1ccc[nH]1	109
COc1ccc(Nc2nc(N/N=C/c3ccc(O)cc3)nc(Nc3ccc([N+](=O)[O-])cc3)n2)cc1	99.9
O=C1OC(c2ccccc2)(c2ccccc2)c2ccsc21	89.2
CCCc1c(C)c2sc(=O)[nH]c2[nH]c1=O	124
COc1cc(C2C(C#N)=C(N)OC3=C2C(=O)c2ccccc2C3=O)cc(OC)c1OC (stereo not given)	55.6
COc1ccc(/C=C2\N=C(c3ccccc3)N(c3ccc(-c4nc5ccc(C)cc5s4)cc3)C2=O)cc1	61.9
OCCNc1nc(Nc2ccc(C3=NN(c4cc(Cl)cc(Cl)c4)C(c4ccc(C(F)(F)F)cc4)C3)cc2)nc(N2CCOCC2)n1 (stereo not given)	51
NC1C(N)C(N)C1N (stereo not given)	85.1
COc1cc(/C=C/C(=O)N2c3ccccc3CC2C)c(OC)c2c1OCO2 (stereo not given)	94.6
O=C(c1nc2ccccc2[nH]1)C1[C@@H](c2cccc(O)c2)C2CC3CCCCC3N2[C@@]12C(=O)Nc1cc(Cl)ccc12 (stereo not given in full)	15
Oc1[nH]c2ccccc2c1N=Nc1nnc2n1N=C(c1ccccc1)CS2	96.6
CNCCNc1nc2ccccc2c2c(=O)c3cccc(C)c3sc12	21
CCCCN1CCN(c2ccc3nc(-c4ccc5nc(-c6ccc(C(F)(F)F)cc6)[nH]c5c4)[nH]c3c2)CC1	-32.6
O=[N+]([O-])c1cc2c(ccc3occc32)o1	9.79
O=c1oc2ccc(-c3ccc(F)cc3F)cc2c(=O)n1-c1cccc(C(F)(F)F)c1	10.4
O=c1c(-c2nc3ccccc3[nH]2)cc2ccccc2n1Cc1cn(Cc2ccccc2Cl)nn1	65.2
CCOC(=O)C1=CN(C)C=C(C(=O)OCC)C1c1cc(Br)c(OCC)c(OC)c1	32.9
CN1C(=O)N(C)C2C1NN=c1s/c(=C\c3ccc(Cl)cc3Cl)c(=O)n12 (stereo not given)	15
COC(=O)/C(CCC=C(C)C)=C1\[C@@H](OC(C)=O)C[C@@]2(C)[C@H]1C[C@@H](O)[C@H]1[C@@]3(C)CC[C@H](NCCO)[C@@H](C)[C@@H]3CC[C@@]12C	101
Cc1ccc2c(n1)C(=O)C(Oc1ccc(Br)cc1)=CC2=O	62

###

Tested on: T-47D breast
test details: NCI-60 one-dose screen, 48 h
assay setup: 10 µM unless noted
Experimental: Growth inhibition of the T-47D human tumor cell line is measured as a screen for anti-cancer activity. Cells are grown in 96 well plates and exposed to the test compound for 48 hours. Compounds are tested at a single concentration, which is 10^-5 M for most compounds. The reported endpoint is percent growth (GI% or GIPRCNT), where numbers from 0 - 100% represent growth inhibition, and numbers from -100% - 0 represent cell death. For example, a value of 40 represents 60% growth inhibition. […]
This is part of a sample that, as a whole, favours compounds with a hit. Of some 83,000 tested, about 20% had one in any assay. The source made the active and inactive calls. The calls were made as follows: active = growth percent below 10; inactive = the rest.
Possible outcomes: active, inactive

compound	group label
CN(CCc1ccccc1)C(=S)N(C(=O)c1ccc([N+](=O)[O-])cc1)c1ccc(Cl)cc1	inactive
COc1cc(/C=C2\Oc3cc(OCCCN4CCCC4)ccc3C2=O)cc(OC)c1	inactive
CCOC(=O)c1cc2c(n1Cc1ccccc1OC)-c1oncc1CCC2	inactive
CCOC(=O)c1sc(-c2ccc(OS(=O)(=O)c3ccccc3[N+](=O)[O-])c(C=O)c2)nc1C	inactive
O=C1Nc2ccccc2/C1=C/c1ccc[nH]1	active
Cc1cc2c(c(C)c1Cl)C(=O)/C(=C/c1ccco1)O2	inactive
Clc1ncccc1Nc1ccc2nnc(-c3ccncc3)n2n1	inactive
COc1nc2c(c(=O)n1C)N=C1c3ccccc3C(=O)C1C(c1ccccc1)N2 (stereo not given)	inactive
CN1C(=O)N(C)C2(c3ccccc3)OC(=S)NC12c1ccccc1 (stereo not given)	inactive
COc1ccccc1N1CCN(C(CNS(=O)(=O)c2ccc(Cl)cc2)c2cccnc2)CC1 (stereo not given)	inactive
Cc1ccc2nc(NC(=O)CSC(=S)N3CCN(c4ccccc4)CC3)sc2c1	inactive
N#C/C(=C1\SC(=O)CN1c1ccccc1)c1nc2ccccc2s1	inactive
O=C(c1ccccc1)N(C(=S)NCCc1ccc(Cl)cc1)c1ccccc1	inactive
O=C(Nc1ccc(N2CCNCC2)cc1)c1[nH]ncc1Nc1cc(Oc2ccccc2)ncn1	inactive
O=S1(=O)N(Cc2ccccc2)[C@@H](Cc2ccccc2)[C@H](O)[C@H](O)[C@H](Cc2ccccc2)N1Cc1ccccc1	active
COc1ccc(-c2nc(-c3ccccc3)c(-c3ccccc3)[nH]2)cc1OC1CCCCC1	inactive
O=C(Nc1ccc(C23CC4CC(CC(c5ccccc5)(C4)C2)C3)cc1)c1cccs1	inactive
COC(=O)c1cc2c(n1Cc1ccccc1)-c1oncc1CCC2	inactive
O=C(c1nc2ccccc2[nH]1)C1[C@@H](c2cccc(O)c2)C2CC3CCCCC3N2[C@@]12C(=O)Nc1cc(Cl)ccc12 (stereo not given in full)	inactive
CS(=O)(=O)Nc1ccc(C(=O)NC(C(=O)NO)c2ccc(-c3cccc(F)c3)cc2)cc1 (stereo not given)	inactive
O=C(CCc1nnc2sc(Cc3ccccc3Cl)nn12)c1nc2ncccc2[nH]1	inactive
Cc1ccc(C)c(-c2csc(Nc3ccc(C)c(C)c3)n2)c1	inactive
COc1ccc(Cn2cc(Cn3c(=O)c(-c4nc5ccccc5[nH]4)cc4ccccc43)nn2)c(OC)c1OC	inactive
Fc1ccc(Oc2ccc(Nc3ncnc4onc(-c5ccccc5)c34)cc2)cc1	inactive
CC1=C(C(=O)OCC2CCN(C(=O)OC(C)(C)C)CC2)[C@H](c2cccc(Br)c2)C2=C(CC(C)(C)CC2=O)N1	inactive
O=C(c1ccccc1)N(CCc1ccc(Cl)cc1)C(=S)N(C(=O)c1ccccc1)c1ccccc1	inactive
O=C(NCc1ccccc1)C1CN(c2ccc(Cl)cc2)N(c2ccc(Cl)cc2)C1=O (stereo not given)	inactive
O=C(COc1cc(O)c2c(=O)cc(-c3ccccc3)oc2c1)Nc1ccccc1C(F)(F)F	inactive
COc1ccc(C2=NN(/C=C3\SC(=O)NC3=Nc3ccc(F)cc3)C(c3ccc(F)cc3)C2)cc1 (stereo not given)	inactive
CCCN1CCN(c2ccc3nc(-c4ccc5nc(-c6cc(OC)ccc6OC)[nH]c5c4)[nH]c3c2)CC1	inactive
O=C(NCc1ccco1)C1CN(c2ccc(Cl)cc2)N(c2ccc(Cl)cc2)C1=O (stereo not given)	inactive
O=c1oc2ccc(Br)cc2c(=O)n1-c1ccc(Cl)cc1F	active
N[C@@H](CC/[N+]([O-])=N/O)C(=O)O	inactive
COc1c2ccoc2c(/C=C/C=O)c2oc(-c3ccccc3)cc(=O)c12	inactive
COc1cc(C2C3=C(COC3=O)N(CCO)c3cc4c(cc32)CCC4)cc(OC)c1O (stereo not given)	inactive
O=C1c2cc(Cl)ccc2Oc2cc([N+](=O)[O-])ccc2N1c1ccc(F)cc1F	inactive
CCOC(=O)C1(Cc2ccccc2)CCN(Cc2cccc(OC)c2O)CC1	inactive
CCn1c(SCC(=O)Nc2cc(C(F)(F)F)ccc2Cl)nc2ccccc2c1=O	inactive
S=C1NC2(c3ccccc3)CCC(=S)N2c2ccccc21 (stereo not given)	inactive
COc1ccc2sc(N(Cc3cccnc3)C(=O)c3ccc(C#N)cc3)nc2c1	inactive
